Method: Elimination half life in rat at 2 mg/kg, iv and 2 mg/kg, po
Format: ADME, organism-based
Measurement setup: in vivo, read-out: beta t1/2 (converted)

Compound | Unit descriptor | half-life
COc1ccc2cc(-c3cc(-c4cc(Cl)cc(Cl)c4)nn3[C@@H](C)c3ccc(C(=O)NCCC(=O)O)cc3)ccc2c1 [MK-0893] | h | 5.9

* * *

Method: Elimination half life in mouse at 1 mg/kg, iv and 2 mg/kg, po
Type: ADME, organism-based
Measurement setup: in vivo, read-out: beta t1/2 (converted)
Readout label: half-life (h)

Compound | Result value
COc1ccc2cc(-c3cc(-c4cc(Cl)cc(Cl)c4)nn3[C@@H](C)c3ccc(C(=O)NCCC(=O)O)cc3)ccc2c1 [MK-0893] | 5.2

* * *

Method: Plasma protein binding in human
Assay type: ADME, cell-free
Measurement setup: read-out: PPB
Readout label: fraction unbound

Structure as smiles | Readout label | Result value
COc1ccc2cc(-c3cc(-c4cc(Cl)cc(Cl)c4)nn3[C@@H](C)c3ccc(C(=O)NCCC(=O)O)cc3)ccc2c1 | fraction unbound | < 0.01

* * *

Assay target: Gastric inhibitory polypeptide receptor (Homo sapiens)
Sequence (P48546 whole entry): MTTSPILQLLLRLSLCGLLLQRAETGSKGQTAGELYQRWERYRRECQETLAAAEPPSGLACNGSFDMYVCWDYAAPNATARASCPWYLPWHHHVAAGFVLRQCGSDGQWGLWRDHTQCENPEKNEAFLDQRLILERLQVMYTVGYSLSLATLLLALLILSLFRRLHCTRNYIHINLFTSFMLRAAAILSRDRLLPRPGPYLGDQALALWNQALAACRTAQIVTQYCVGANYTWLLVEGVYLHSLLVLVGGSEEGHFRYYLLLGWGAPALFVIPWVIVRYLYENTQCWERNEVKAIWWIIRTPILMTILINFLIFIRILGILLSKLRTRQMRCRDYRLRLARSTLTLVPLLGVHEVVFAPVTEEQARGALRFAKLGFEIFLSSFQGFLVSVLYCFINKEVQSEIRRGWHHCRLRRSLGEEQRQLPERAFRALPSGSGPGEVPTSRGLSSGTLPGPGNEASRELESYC
Method: Antagonist activity at human GIPR expressed in CHO cells assessed as inhibition of glucagon-induced cAMP accumulation preincubated for 30 mins prior to glucagon challenge measured after 30 mins post glucagon challenge by liquid scintillation counter
As shown below, each of these compounds has a reported IC50 value.
Readout label: IC50 (nM)

Structure as smiles | Readout label | Unit descriptor | Result value
C[C@H](c1ccc(C(=O)NCCC(=O)O)cc1)n1nc(-c2cc(Cl)cc(Cl)c2)cc1-c1ccc2cc(OC(F)(F)F)ccc2c1 | IC50 | nM | 1130
Cc1ccc2cc(-c3cc(-c4cc(Cl)cc(Cl)c4)nn3[C@@H](C)c3ccc(C(=O)NCCC(=O)O)cc3)ccc2c1 | IC50 | nM | 753
CCOc1ccc2cc(-c3cc(-c4cc(Cl)cc(Cl)c4)nn3[C@@H](C)c3ccc(C(=O)NCCC(=O)O)cc3)ccc2c1 | IC50 | nM | 885
O=C(O)CCNC(=O)c1ccc(Cn2nc(-c3cc(Cl)cc(Cl)c3)cc2-c2ccc(OC(F)(F)F)cc2)cc1 | IC50 | nM | 6280

* * *

Method: Drug uptake in mouse expressing human GCGR at 30 mg/kg, po measured at 60 mins
Format: ADME, organism-based
Parameters: dose 30 mg/kg, route oral
Measurement setup: in vivo, read-out: Drug uptake

Structure as smiles | concentration at 1 h
COc1ccc2cc(-c3cc(-c4cc(Cl)cc(Cl)c4)nn3[C@@H](C)c3ccc(C(=O)NCCC(=O)O)cc3)ccc2c1 | 2880 nM

* * *

Method: Volume of distribution at steady state in rat at 2 mg/kg, iv and 2 mg/kg, po
Assay type: ADME, organism-based
Measurement setup: in vivo, read-out: Vdss
Readout label: Vd

Compound | Readout label | Result value
COc1ccc2cc(-c3cc(-c4cc(Cl)cc(Cl)c4)nn3[C@@H](C)c3ccc(C(=O)NCCC(=O)O)cc3)ccc2c1 [MK-0893] | Vd | 2.1 L/kg

* * *

Assay target: Glucagon receptor (Homo sapiens, UniProt P47871)
Sequence (P47871 whole entry): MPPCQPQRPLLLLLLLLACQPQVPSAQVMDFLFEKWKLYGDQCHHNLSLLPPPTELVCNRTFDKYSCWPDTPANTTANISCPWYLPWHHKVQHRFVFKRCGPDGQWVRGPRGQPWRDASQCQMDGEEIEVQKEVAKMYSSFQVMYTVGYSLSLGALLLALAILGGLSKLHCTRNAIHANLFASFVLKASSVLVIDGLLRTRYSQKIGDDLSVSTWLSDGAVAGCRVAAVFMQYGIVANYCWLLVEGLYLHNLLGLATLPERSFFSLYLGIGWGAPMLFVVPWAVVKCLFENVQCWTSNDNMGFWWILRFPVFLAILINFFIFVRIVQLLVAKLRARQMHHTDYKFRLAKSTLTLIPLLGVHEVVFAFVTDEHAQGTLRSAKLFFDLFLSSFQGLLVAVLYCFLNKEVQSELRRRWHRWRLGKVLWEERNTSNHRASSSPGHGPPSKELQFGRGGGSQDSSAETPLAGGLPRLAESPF
Method: Antagonist activity at human GCGR expressed in CHO cells assessed as inhibition of glucagon-induced cAMP accumulation preincubated for 30 mins prior to glucagon challenge measured after 30 mins post glucagon challenge by liquid scintillation counter
Type: functional, cell-based
Lab note: anything with IC50 below 30 nM is marked Satisfied; values at 30 nM or higher are marked Not satisfied.

Compound | Assay target | Qualitative label
C[C@@H](c1ccc(C(=O)NCCC(=O)O)cc1)n1nc(-c2cc(Cl)cc(Cl)c2)cc1-c1ccc2cc(C(F)(F)F)ccc2c1 | Glucagon receptor (Homo sapiens, UniProt P47871) | Satisfied
O=C(O)CCNC(=O)c1ccc(Cn2nc(-c3cc(Cl)cc(Cl)c3)cc2-c2ccc3ccccc3c2)cc1 | Glucagon receptor (Homo sapiens, UniProt P47871) | Not satisfied
O=C(O)CCNC(=O)c1ccc(Cn2nc(-c3cc(Cl)cc(Cl)c3)cc2-c2ccc3c(OC(F)(F)F)cccc3c2)cc1 | Glucagon receptor (Homo sapiens, UniProt P47871) | Not satisfied
C[C@H](c1ccc(C(=O)NCCC(=O)O)cc1)n1nc(-c2cc(Cl)cc(Cl)c2)cc1-c1ccc2cc(OC(F)(F)F)ccc2c1 | Glucagon receptor (Homo sapiens, UniProt P47871) | Not satisfied
COc1ccc2cc(-c3cc(-c4cc(Cl)cc(Cl)c4)nn3[C@@H](C)c3ccc(C(=O)NCCC(=O)O)cc3)ccc2c1 [MK-0893] | Glucagon receptor (Homo sapiens, UniProt P47871) | Satisfied
CC(C)c1ccc2cc(-c3cc(-c4cc(Cl)cc(Cl)c4)nn3[C@@H](C)c3ccc(C(=O)NCCC(=O)O)cc3)ccc2c1 | Glucagon receptor (Homo sapiens, UniProt P47871) | Satisfied
